MEASUREMENT_NOTES: aggregation and purification amounts of deglycosylated antibodies, before and after φ
Type: physicochemical
SETUP_CONDITIONS: based on 100 ml culture
ASSAY_METRIC: Fraction4, After φ (mg)
Number in mg, nothing else.

Prompt: Any idea what its Fraction4, After φ is? The molecule is deglyco C1 IgG: deglycosylated clone 1 IgG; light chain CDR1 TGSSSNIGRCGVT (SEQ ID NO: 2), N32R/N33C/S34G (antibody, V domains shown) VH: EVQLVESGGGLVQPGGSLRLSCAVSGFTFSGYDMSWIRQAPGKGLEWVAGIYPDGGNTYYADSVKGRFTISRDDSKNTFYLQMNSLRAEDTAVYYCARGATWWVLGPFDYWGQGTLVTVSS VL: DIQLTQSPSSLSASVGDRVTITCTGSSSNIGRCGVTWYQQKPGKAPKLLIYADSHRPSGVPSRFSGSGSGTDFTLTISSLQPEDFATYYCGAWDDSLSGYVFGQGTKVEIKR
Completion: 0.128
